Data credit: paper PMC6271245

Some molecules, each annotated with its measured CC50 at 48 h.
experiment: Cytotoxicity on uninfected RD cells, MTT; type: cell-based; conditions: human, concentration reducing cell viability by 50%
Kindly answer with a numeric value in µg/mL, unit omitted.

Here are 3 molecules together with their reported answers.
> print(dat)
                                   molecule  experimental.endpoint  unit.text  number
1          CN(C)Cc1c[nH]c2ccccc12 [Gramine]           CC50 at 48 h      µg/mL      85
2  Fc1ccccc1C(Nc1ccccn1)c1c[nH]c2ccccc12 (stereo not drawn) [Compound 4d]           CC50 at 48 h      µg/mL      28
3  FC(F)(F)c1ccc(C(Nc2ccccn2)c2c[nH]c3ccccc23)cc1 (stereo not drawn) [Compound 4j]           CC50 at 48 h      µg/mL    17.8

Input line: Using the record for Fc1ccc(C(c2c[nH]c3ccccc23)n2cccn2)cc1 (stereo not drawn) [Compound 4t] , state its measured CC50 at 48 h.
Output line: 12.6

Input line: Given Cn1cc(C(Nc2nc3ccccc3s2)c2ccccc2F)c2ccccc21 (stereo not drawn) [Compound 4r] , respond with its CC50 at 48 h.
Output line: 150

Input line: Supply reported CC50 at 48 h belonging to this molecule: Clc1ccccc1C(Nc1ccccn1)c1c[nH]c2ccccc12 (stereo not drawn) [Compound 4b]
Output line: 22.8

Input line: Please report CC50 at 48 h for the following molecule: Cn1cc(C(Nc2ccccn2)c2ccc(C(F)(F)F)cc2)c2ccccc21 (stereo not drawn) [Compound 4k]
Output line: 27.6

Input line: Using the record for NC(=O)c1ncn([C@@H]2O[C@H](CO)[C@@H](O)[C@H]2O)n1 [ribavirin, reference compound] , state its measured CC50 at 48 h.
Output line: 436

Input line: Return value of CC50 at 48 h for input Cn1cc(C(Nc2ccccn2)c2ccc(F)cc2)c2ccccc21 (stereo not drawn) [Compound 4i] , no commentary.
Output line: 65.2

###

Overview of reported log10(CC50 at 48 h) across a group of molecules:
assay: Cytotoxicity on uninfected RD cells, MTT; format: cell-based; settings: human, concentration reducing cell viability by 50%
Short version: log10 scale, CC50 at 48 h, µg/mL.

Some molecules with recorded log10(CC50 at 48 h):
> print(dat)
                                   molecule  number
1  Cn1cc(C(Nc2ccccn2)c2ccccc2F)c2ccccc21 (stereo not drawn)    1.72
2  c1ccc(C(Nc2ccccn2)c2c[nH]c3ccccc23)cc1 (stereo not drawn)    1.24
3  c1ccc(C(Nc2nc3ccccc3s2)c2c[nH]c3ccccc23)nc1 (stereo not drawn)    2.14
4  Fc1ccc(C(c2c[nH]c3ccccc23)n2cncn2)cc1 (stereo not drawn)    0.83
5  Fc1ccccc1C(Nc1nc2ccccc2s1)c1c[nH]c2ccccc12 (stereo not drawn)    1.16
6  Cn1cc(C(Nc2ccccn2)c2ccc(Cl)cc2)c2ccccc21 (stereo not drawn)    1.51

Here's the next entry for you.
Input line: Specify log10(CC50 at 48 h) for Cn1cc(C(Nc2ccccn2)c2ccncc2)c2ccccc21 (stereo not drawn) and stop.
Output line: 1.59

###

experiment: Cytotoxicity on uninfected Vero cells, MTT; assay type: cell-based; conditions: African green monkey; concentration reducing cell viability by 50%; uninfected Vero cells, 48 h, MTT; read-out: CC50 (µg/mL) Vero
experimental.endpoint: log10 of CC50 at 48 h (log10 of the value in µg/mL)
log10 CC50 at 48 h, µg/mL

> print(dat)
                                   compound  experimental.endpoint  number
1  Cn1cc(C(Nc2ccccn2)c2ccc(F)cc2)c2ccccc21 (stereo not drawn)  log10 of CC50 at 48 h    1.85
2  Clc1ccc(C(Nc2ccccn2)c2c[nH]c3ccccc23)cc1 (stereo not drawn)  log10 of CC50 at 48 h    1.35
3  Fc1ccc(C(Nc2ccccn2)c2c[nH]c3ccccc23)cc1 (stereo not drawn)  log10 of CC50 at 48 h    1.61
4  c1ccc(NC(c2ccccn2)c2c[nH]c3ccccc23)nc1 (stereo not drawn)  log10 of CC50 at 48 h    1.98
5  c1ccc(C(Nc2nc3ccccc3s2)c2c[nH]c3ccccc23)nc1 (stereo not drawn)  log10 of CC50 at 48 h    2.04
6  Clc1ccccc1C(Nc1ccccn1)c1c[nH]c2ccccc12 (stereo not drawn)  log10 of CC50 at 48 h    1.27
7  c1ccc(C(Nc2ccccn2)c2c[nH]c3ccccc23)cc1 (stereo not drawn)  log10 of CC50 at 48 h    1.51
8  Fc1ccc(C(c2c[nH]c3ccccc23)n2cccn2)cc1 (stereo not drawn)  log10 of CC50 at 48 h    1.02

Now take the following compound into account.
Input line: Fill in log10 of CC50 at 48 h for record Cn1cc(C(Nc2ccccn2)c2ccc(C(F)(F)F)cc2)c2ccccc21 (stereo not drawn)
Output line: 1.27

###

test system: Enterovirus 71 (EV71); experiment: Inhibition of EV71-induced cytopathogenicity (CPE) in Vero cells, MTT; assay type: cell-based; details: Enterovirus A; concentration for 50% protection from virus-induced cytopathogenicity; Vero cells, 100 TCID50 EV71, 48 h, MTT; mean ± SD of three experiments; read-out: EC50 (µg/mL) Vero
Lab note: anything with EC50 below 10 µg/mL is marked True; values at 10 µg/mL or higher are marked False.

> print(dat)
                                   molecule  classification
1  Clc1ccccc1C(Nc1ccccn1)c1c[nH]c2ccccc12 (stereo not shown) [Compound 4b]            True
2  Cn1cc(C(Nc2ccccn2)c2ccc(F)cc2)c2ccccc21 (stereo not shown) [Compound 4i]            True
3  Fc1ccc(C(Nc2ccccn2)c2c[nH]c3ccccc23)cc1 (stereo not shown) [Compound 4e]            True
4  Cn1cc(C(Nc2ccccn2)c2ccc(C(F)(F)F)cc2)c2ccccc21 (stereo not shown) [Compound 4k]           False
5  Fc1ccccc1C(Nc1ccccn1)c1c[nH]c2ccccc12 (stereo not shown) [Compound 4d]            True

Input line: Say whether its EC50 is strictly beneath 10 µg/mL. Entry: c1ccc(C(Nc2ccccn2)c2c[nH]c3ccccc23)cc1 (stereo not shown) [Compound 4a]
Output line: False

Input line: Given Cn1cc(C(Nc2ccccn2)c2ccccc2Cl)c2ccccc21 (stereo not shown) [Compound 4f] , is recorded EC50 strictly lower than 10 µg/mL?
Output line: False

###

experiment: Cytotoxicity on uninfected Vero cells, MTT; assay type: cell-based; details: African green monkey; concentration reducing cell viability by 50%; uninfected Vero cells, 48 h, MTT; read-out: CC50 (µg/mL) Vero
experimental.endpoint: CC50 at 48 h

Here are 10 compounds together with their reported answers.
> print(dat)
                                    compound       result
 1  Cn1cc(C(Nc2ccccn2)c2ccccn2)c2ccccc21 (stereo not drawn) [Compound 4m]  > 200 µg/mL
 2  FC(F)(F)c1ccc(C(Nc2ccccn2)c2c[nH]c3ccccc23)cc1 (stereo not drawn) [Compound 4j]   15.8 µg/mL
 3  Fc1ccc(C(c2c[nH]c3ccccc23)n2cncn2)cc1 (stereo not drawn) [Compound 4u]    4.9 µg/mL
 4  Cn1cc(C(Nc2ccccn2)c2ccncc2)c2ccccc21 (stereo not drawn) [Compound 4o]   72.8 µg/mL
 5  Clc1ccccc1C(Nc1nc2ccccc2s1)c1c[nH]c2ccccc12 (stereo not drawn) [Compound 4p]    6.6 µg/mL
 6  Cn1cc(C(Nc2ccccn2)c2ccccc2Cl)c2ccccc21 (stereo not drawn) [Compound 4f]   86.4 µg/mL
 7  c1ccc(NC(c2ccncc2)c2c[nH]c3ccccc23)nc1 (stereo not drawn) [Compound 4n]    121 µg/mL
 8  Fc1ccccc1C(Nc1ccccn1)c1c[nH]c2ccccc12 (stereo not drawn) [Compound 4d]   37.8 µg/mL
 9  Fc1ccccc1C(Nc1nc2ccccc2s1)c1c[nH]c2ccccc12 (stereo not drawn) [Compound 4q]   10.8 µg/mL
10  Cn1cc(C(Nc2ccccn2)c2ccccc2F)c2ccccc21 (stereo not drawn) [Compound 4h]   89.3 µg/mL

Input line: Please give measured CC50 at 48 h of the following entry: Cn1cc(C(Nc2nc3ccccc3s2)c2ccccc2F)c2ccccc21 (stereo not drawn) [Compound 4r]
Output line: 132 µg/mL

Input line: Quick one: give measured CC50 at 48 h for Cn1cc(C(Nc2ccccn2)c2ccc(Cl)cc2)c2ccccc21 (stereo not drawn) [Compound 4g]
Output line: 38.6 µg/mL
